This section presents compounds with their documented GI50 values.
Tested on: OVCAR-8 ovarian
Measurement Description: NCI tumour cell line growth inhibition, 48 h

CCOC(=O)c1cc2c(n1Cc1ccccc1OC)-c1oncc1CCC2    3.85 µM
CC(=O)c1ccc(Oc2c3ccccc3nc3occc23)cc1    3.33 µM
C[C@@H](Oc1cc(-c2cnn(C3CCNCC3)c2)cnc1N)c1c(Cl)cc(F)cc1Cl    3.83 µM
CC1(C)CC[C@]2(CO)CC[C@]3(C)C(=CC[C@@H]4[C@@]5(C)CCNCC(C)(C)[C@@H]5CC[C@]43C)[C@@H]2C1    4.77 µM

Could you now look at the following compound, please?
QUERY: Consider the compound C=C1C(O)C2CC(C)(C)C(=O)C2=C(CC(C)C)C12CC2 (stereo not given) . State its measured GI50.
RESULT: > 100 µM
